assay protocol: Cytotoxicity against mouse AML-12 cells by MTT assay
Assay type: cell-based
condition details: AML12
readout kind: pIC50
// returns pIC50 (minus log10 of molar concentration), number only

What value of pIC50 has been recorded for this entry: COc1cc(C2=CC(c3ccc(Br)cc3)NC(=S)N2)cc(OC)c1OC (stereo not given)
7.23

What value of pIC50 has been recorded for this entry: COc1cccc(C2=NN(c3ccccc3)C(c3ccc(Cl)cc3)C2O)c1 (stereo not given)
7.13

What value of pIC50 has been recorded for this entry: COc1cccc(C2=NN(c3ccccc3)C(c3ccc(Br)cc3)C2O)c1 (stereo not given)
7.57

What value of pIC50 has been recorded for this entry: COc1cc(C2=CC(c3ccc(Cl)cc3)NC(=S)N2)cc(OC)c1OC (stereo not given)
7.05

What value of pIC50 has been recorded for this entry: `COc1cc2c(c(OC)c1OC)-c1ccc(OC)c(=O)cc1[C@@H](NC(C)=O)CC2`
6.86

---

target of assay: Tubulin beta-5 chain (Homo sapiens) (UniProt P07437)
Sequence (P07437 whole entry): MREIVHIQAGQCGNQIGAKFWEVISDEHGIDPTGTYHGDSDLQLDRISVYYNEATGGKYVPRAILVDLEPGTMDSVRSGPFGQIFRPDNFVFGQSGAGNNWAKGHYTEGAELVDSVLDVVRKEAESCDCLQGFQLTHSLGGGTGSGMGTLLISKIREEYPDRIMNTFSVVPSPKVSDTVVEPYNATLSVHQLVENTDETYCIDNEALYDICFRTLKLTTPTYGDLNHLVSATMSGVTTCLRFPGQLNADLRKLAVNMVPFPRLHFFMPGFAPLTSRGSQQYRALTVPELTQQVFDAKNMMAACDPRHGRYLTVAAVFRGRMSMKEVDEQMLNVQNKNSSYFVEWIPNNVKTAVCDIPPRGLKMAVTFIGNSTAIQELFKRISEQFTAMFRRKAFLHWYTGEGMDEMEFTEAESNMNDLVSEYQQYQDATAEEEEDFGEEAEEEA
assay protocol: Inhibition of tubulin beta polymerization in human MCF7 cells after 18 to 24 hrs by spectrophotometric method relative to control
Assay type: cell-based
Parameters: concentration or dose not given beside the values
condition details: concentration not given here
readout kind: inhibition (%)
// return numeric value only (unit: %, not printed)

What value of inhibition has been recorded for this entry: COc1cccc(C(=O)C2OC2c2ccc(F)cc2)c1 (stereo not given)
88.4

What value of inhibition has been recorded for this entry: COc1cccc(C2=NN(c3ccccc3)C(c3ccc(Cl)cc3)C2O)c1 (stereo not given)
92.3

What value of inhibition has been recorded for this entry: COc1cccc(C(=O)C(O)C(Nc2ccc(F)c(Cl)c2)c2ccc(Br)cc2)c1 (stereo not given)
92.2

What value of inhibition has been recorded for this entry: COc1cccc(C2=NN(c3ccccc3)C(c3ccc(Br)cc3)C2O)c1 (stereo not given)
87.8

What value of inhibition has been recorded for this entry: COc1cccc(C(=O)C2SC2c2ccc(Cl)cc2)c1 (stereo not given)
89.3

---

System: HepG2
assay protocol: Antiproliferative activity against human HepG2 cells after 48 hrs by SRB assay
Assay type: functional, cell-based
condition details: HepG2, 48 h
We begin with a simple list: items and their reported pIC50.
// returns pIC50 (minus log10 of molar concentration), number only

Below: 6 molecules and their reported pIC50.
What value of pIC50 has been recorded for this entry: COc1cccc(C2=NN(c3ccccc3)C(c3ccc(Br)cc3)C2O)c1 (stereo not drawn)
8.00

What value of pIC50 has been recorded for this entry: COc1cc(C2=CC(c3ccc(Cl)cc3)NC(=S)N2)cc(OC)c1OC (stereo not drawn)
7.96

What value of pIC50 has been recorded for this entry: COc1cccc(C(=O)C2OC2c2ccc(F)cc2)c1 (stereo not drawn)
7.77

What value of pIC50 has been recorded for this entry: COc1cccc(C2=NNC(c3ccc(Cl)cc3)C2O)c1 (stereo not drawn)
7.45

What value of pIC50 has been recorded for this entry: COc1ccc(C2=NN(c3ccccc3)C(c3ccc(OC)cc3)C2O)cc1 (stereo not drawn)
7.99

What value of pIC50 has been recorded for this entry: COc1cc2c(c(OC)c1OC)-c1ccc(OC)c(=O)cc1[C@@H](NC(C)=O)CC2 [COLCHICINE]
6.91

***
What value of pIC50 has been recorded for this entry: COc1cccc(C2=CC(c3ccc(Cl)cc3)NC(=S)N2)c1 (stereo not drawn)
7.27

What value of pIC50 has been recorded for this entry: COc1cc(C2=CC(c3ccc(Br)cc3)NC(=S)N2)cc(OC)c1OC (stereo not drawn)
8.02

---

We begin with a simple list: items and their reported inhibition.
target of assay: Tubulin beta-5 chain (Homo sapiens) (UniProt P07437)
assay protocol: Inhibition of tubulin beta polymerization in human HepG2 cells after 18 to 24 hrs by spectrophotometric method relative to control
Type: cell-based
Parameters: concentration or dose not given beside the values
condition details: concentration not given here
// return numeric value only (unit: %, not printed)

Below: 5 compounds and their reported inhibition.
What value of inhibition has been recorded for this entry: COc1cccc(C2=CC(c3ccc(Cl)cc3)NC(=S)N2)c1 (centres undefined)
90.6

What value of inhibition has been recorded for this entry: COc1cc(C2=CC(c3ccc(Cl)cc3)NC(=S)N2)cc(OC)c1OC (centres undefined)
92.4

What value of inhibition has been recorded for this entry: COc1cccc(C(=O)C2SC2c2ccc(Br)cc2)c1 (centres undefined)
85.7

What value of inhibition has been recorded for this entry: COc1cccc(C2=NN(c3ccccc3)C(c3ccc(Br)cc3)C2O)c1 (centres undefined)
84.6

What value of inhibition has been recorded for this entry: COc1ccc(C2=CC(c3ccc(Br)cc3)NC(=S)N2)cc1 (centres undefined)
91.4

***
What value of inhibition has been recorded for this entry: COc1cccc(C(=O)C2SC2c2ccc(Cl)cc2)c1 (centres undefined)
88.6

What value of inhibition has been recorded for this entry: COc1cccc(C(=O)C(O)C(Nc2ccc(F)c(Cl)c2)c2ccc(Br)cc2)c1 (centres undefined)
88.5

What value of inhibition has been recorded for this entry: COc1cc(C2=CC(c3ccc(Br)cc3)NC(=S)N2)cc(OC)c1OC (centres undefined)
92.8

What value of inhibition has been recorded for this entry: COc1cccc(C2=NN(c3ccccc3)C(c3ccc(Cl)cc3)C2O)c1 (centres undefined)
93

---

We begin with a simple list: items and their reported pIC50.
Tested on: HepG2
assay protocol: Antiproliferative activity against human HepG2 cells after 48 hrs by SRB assay
Format: functional, cell-based
condition details: HepG2, 48 h
// returns pIC50 (minus log10 of molar concentration), number only

Below: 3 molecules and their reported pIC50.
What value of pIC50 has been recorded for this entry: COc1ccc(C2=CC(c3ccc(Br)cc3)NC(=S)N2)cc1 (stereo unspecified)
7.52

What value of pIC50 has been recorded for this entry: COc1cccc(C2=NN(c3ccccc3)C(c3ccc(Cl)cc3)C2O)c1 (stereo unspecified)
7.96

What value of pIC50 has been recorded for this entry: COc1ccc(C(=O)C2OC2c2ccc(Cl)cc2)cc1 (stereo unspecified)
7.82

***
What value of pIC50 has been recorded for this entry: COc1cccc(C2=CC(c3ccc(Br)cc3)NC(=S)N2)c1 (stereo unspecified)
7.47

What value of pIC50 has been recorded for this entry: COc1cccc(C2=NNC(c3ccc(Br)cc3)C2O)c1 (stereo unspecified)
7.37

---

Test system: HepG2
assay protocol: Antiproliferative activity against human HepG2 cells after 48 hrs by SRB assay
Assay type: functional, cell-based
condition details: HepG2, 48 h
readout kind: IC50 (nM)
// return numeric value only (unit: nM, not printed)

Below: 3 molecules and their reported IC50.
What value of IC50 has been recorded for this entry: COc1ccc(C2=NN(c3ccccc3)C(c3ccc(F)cc3)C2O)cc1 (stereo unspecified)
13

What value of IC50 has been recorded for this entry: COc1cccc(C(=O)C2SC2c2ccc(Cl)cc2)c1 (stereo unspecified)
13

What value of IC50 has been recorded for this entry: COc1cccc(C(=O)C(O)C(Nc2ccc(F)c(Cl)c2)c2ccc(Br)cc2)c1 (stereo unspecified)
37.2

***
What value of IC50 has been recorded for this entry: COc1cc(C2=CC(c3ccc(F)cc3)NC(=S)N2)cc(OC)c1OC (stereo unspecified)
61.9

What value of IC50 has been recorded for this entry: COc1cccc(C(=O)C2SC2c2ccc(Br)cc2)c1 (stereo unspecified)
11

What value of IC50 has been recorded for this entry: COc1ccc(C2C=C(c3cc(OC)c(OC)c(OC)c3)NC(=S)N2)cc1 (stereo unspecified)
90

The values you see were collected from ChEMBL document CHEMBL4002544.
